# System: Hepatitis B virus
# assayRemarks: Antiviral activity against Hepatitis B virus infected in human HepG2.2.15 cells assessed as inhibition of HBV DNA copies per uL at 150 uM after 9 days by real-time fluorescence quantitative PCR analysis
# Assay type: functional
# conditionLabel: HepG2 2.2.15, 216 h
measuredEndpoint: inhibition at 150 µM (%)
Field: numeric (%). Do not append units.

# testSmiles, valueMeasured
measured = [
    ("COc1cc(/C=C/C(=O)O/N=C/c2ccco2)cc2c1OCO2", 52),
    ("COc1cc(/C=C/C(=O)O/N=C/c2ccccn2)cc2c1OCO2", 54.5),
    ("O=C(/C=C/c1ccc2c(c1)OCO2)O/N=C/c1ccccn1", 72.2),
]

*Q* inhibition at 150 µM for `Nc1ccn([C@@H]2CS[C@H](CO)O2)c(=O)n1` ?
*A* 81.6

* * *

# System: Hepatitis B virus
# assayRemarks: Antiviral activity against Hepatitis B virus infected in human HepG2.2.15 cells assessed as inhibition of HBeAg secretion at 75 uM after 9 days by ELISA
# Format: functional
# conditionLabel: HepG2 2.2.15, 216 h
measuredEndpoint: inhibition at 75 µM (%)
Provide the reading as a plain figure in %.

# testSmiles, inhibition at 75 µM [%]
data = [
    ("COc1cc(/C=C/C(=O)O/N=C/c2ccccn2)cc(OC)c1OC", 41.2),
]

*Q* What does the data say about its inhibition at 75 µM? Entry: `O=C(/C=C/c1ccc2c(c1)OCO2)O/N=C/c1ccccn1`
*A* 89.8

*Q* Given `COc1ccc(/C=C/C(=O)O/N=C/c2ccco2)cc1OC` , state its recorded inhibition at 75 µM.
*A* 37.3

*Q* Requested field: inhibition at 75 µM. Item: `COc1cc(/C=C/C(=O)O/N=C/c2cccs2)cc2c1OCO2`
*A* 48.9

*Q* Recorded inhibition at 75 µM for `Nc1ccn([C@@H]2CS[C@H](CO)O2)c(=O)n1` , please?
*A* 34.2

*Q* So what does the record say about inhibition at 75 µM for `COc1ccc(/C=C/C(=O)O/N=C/c2ccccn2)cc1OC` ?
*A* 40.3

*Q* Quick check: inhibition at 75 µM of `COc1cc(/C=C/C(=O)O/N=C/c2cccs2)cc(OC)c1OC` ?
*A* 31.6

*Q* I have this compound here, `O=C(/C=C/c1ccc2c(c1)OCO2)O/N=C/c1ccco1` , and I need its recorded inhibition at 75 µM.
*A* 47

*Q* Given `COc1ccc(/C=C/C(=O)O/N=C/c2cccs2)cc1OC` , state its recorded inhibition at 75 µM.
*A* 22.6

* * *

Recorded inhibition at 37.5 µM for the following compounds
# Test system: Hepatitis B virus
# assayRemarks: Antiviral activity against Hepatitis B virus infected in human HepG2.2.15 cells assessed as inhibition of HBV DNA copies per uL at 37.5 uM after 3 days by real-time fluorescence quantitative PCR analysis
# Format: functional
# conditionLabel: HepG2 2.2.15, 72 h
Dear colleague, please return just the value in %, with no unit written.

Below, 3 compounds whose answers are already recorded.
# compound, inhibition at 37.5 µM / %
records = [
    ("Nc1ccn([C@@H]2CS[C@H](CO)O2)c(=O)n1 [LAMIVUDINE]", 40),
    ("O=C(/C=C/c1ccc2c(c1)OCO2)O/N=C/c1ccccn1", 30.4),
    ("COc1cc(/C=C/C(=O)O/N=C/c2ccco2)cc2c1OCO2", 19.8),
]

API: the following record is the query input.
*Q* // inhibition at 37.5 µM lookup, key: `COc1cc(/C=C/C(=O)O/N=C/c2ccccn2)cc2c1OCO2`
*A* 21.6

* * *

# Test system: Hepatitis B virus
# assayRemarks: Antiviral activity against Hepatitis B virus infected in human HepG2.2.15 cells assessed as inhibition of HBeAg secretion at 75 uM after 6 days by ELISA
# Format: functional
# conditionLabel: HepG2 2.2.15, 144 h
Entries and their inhibition at 75 µM
Answer format: numeric, % implied, no suffix.

// known answers, use as guide
# testSmiles, inhibition at 75 µM [%]
records = [
    ("COc1cc(/C=C/C(=O)O/N=C/c2ccccn2)cc(OC)c1OC", 29.2),
    ("Nc1ccn([C@@H]2CS[C@H](CO)O2)c(=O)n1", 22.1),
    ("O=C(/C=C/c1ccc2c(c1)OCO2)O/N=C/c1ccco1", 45.8),
]

*Q* Give the reported inhibition at 75 µM for `COc1cc(/C=C/C(=O)O/N=C/c2ccco2)cc(OC)c1OC` (system: Hepatitis B virus).
*A* 25.8

*Q* For the record `COc1cc(/C=C/C(=O)O/N=C/c2cccs2)cc2c1OCO2` , what value of inhibition at 75 µM is listed for Hepatitis B virus?
*A* 33.8

* * *

# Tested on: Hepatitis B virus
# assayRemarks: Antiviral activity against Hepatitis B virus infected in human HepG2.2.15 cells assessed as cell survival at 150 uM after 9 days (reference value: 100%)
# Format: functional
# conditionLabel: HepG2 2.2.15, 216 h
Could you please mark 1.0 for values of viability at 150 µM below 80% and 0.0 for values at or above it?

For orientation, consider the following solved cases.
# testSmiles, labelValue
rows = [
    ("O=C(/C=C/c1ccc2c(c1)OCO2)O/N=C/c1cccs1", 0.0),
    ("Nc1ccn([C@@H]2CS[C@H](CO)O2)c(=O)n1", 0.0),
    ("O=C(/C=C/c1ccc2c(c1)OCO2)O/N=C/c1ccco1", 1.0),
    ("COc1cc(/C=C/C(=O)O/N=C/c2cccs2)cc2c1OCO2", 0.0),
    ("COc1ccc(/C=C/C(=O)O/N=C/c2cccs2)cc1OC", 0.0),
]

*Q* Please state whether viability at 150 µM is below 80% for `COc1cc(/C=C/C(=O)O/N=C/c2ccco2)cc(OC)c1OC`
*A* 0.0

*Q* Given the entry `COc1cc(/C=C/C(=O)O/N=C/c2ccccn2)cc2c1OCO2` , would its reported viability at 150 µM be below 80%?
*A* 0.0

* * *

# Tested on: Hepatitis B virus
# assayRemarks: Antiviral activity against Hepatitis B virus infected in human HepG2.2.15 cells assessed as inhibition of HBV DNA copies per uL at 150 uM after 3 days by real-time fluorescence quantitative PCR analysis
# Type: functional
# conditionLabel: HepG2 2.2.15, 72 h
# key: entry, value: inhibition at 150 µM
Only the number, expressed in %, is required.

# molecule, measuredEndpoint, valueMeasured
measured = [
    ("COc1cc(/C=C/C(=O)O/N=C/c2ccccn2)cc2c1OCO2", "inhibition at 150 µM", 34.9),
    ("COc1cc(/C=C/C(=O)O/N=C/c2ccco2)cc2c1OCO2", "inhibition at 150 µM", 40.7),
    ("O=C(/C=C/c1ccc2c(c1)OCO2)O/N=C/c1ccccn1", "inhibition at 150 µM", 45.8),
]

*Q* Fill blank: measured inhibition at 150 µM of the molecule Nc1ccn([C@@H]2CS[C@H](CO)O2)c(=O)n1 [LAMIVUDINE] is ____.
*A* 46.6

* * *

# System: Hepatitis B virus
# assayRemarks: Antiviral activity against Hepatitis B virus infected in human HepG2.2.15 cells assessed as inhibition of HBsAg secretion at 150 uM after 9 days by ELISA
# Format: functional
# conditionLabel: HepG2 2.2.15, 216 h
Threshold check on inhibition at 150 µM: at or above 50% gives true (1), strictly below gives false (0).

Worked cases, answers included:
# compound, labelValue
rows = [
    ("COc1cc(/C=C/C(=O)O/N=C/c2ccccn2)cc2c1OCO2", "true (1)"),
    ("COc1ccc(/C=C/C(=O)O/N=C/c2ccco2)cc1OC", "false (0)"),
    ("COc1cc(/C=C/C(=O)O/N=C/c2ccco2)cc2c1OCO2", "true (1)"),
]

*Q* API: above_or_equal(metric=inhibition at 150 µM, cutoff=50%) for item `O=C(/C=C/c1ccc2c(c1)OCO2)O/N=C/c1cccs1`
*A* true (1)

*Q* For this compound, is measured inhibition at 150 µM 50% or higher? `COc1cc(/C=C/C(=O)O/N=C/c2cccs2)cc(OC)c1OC`
*A* false (0)

*Q* Answer whether inhibition at 150 µM of `O=C(/C=C/c1ccc2c(c1)OCO2)O/N=C/c1ccccn1` is greater than or equal to 50%.
*A* true (1)

*Q* I'd appreciate it if you could say whether `COc1ccc(/C=C/C(=O)O/N=C/c2cccs2)cc1OC` has inhibition at 150 µM at least equal to 50%.
*A* false (0)

*Q* hey, is inhibition at 150 µM for this one >= 50%? `O=C(/C=C/c1ccc2c(c1)OCO2)O/N=C/c1ccco1`
*A* true (1)

*Q* Dear colleague, could you confirm whether `COc1cc(/C=C/C(=O)O/N=C/c2cccs2)cc2c1OCO2` has inhibition at 150 µM at or above 50%?
*A* true (1)

*Q* Hi team, for Nc1ccn([C@@H]2CS[C@H](CO)O2)c(=O)n1 [LAMIVUDINE] , is the recorded inhibition at 150 µM at or above 50%?
*A* true (1)

*Q* Decide: inhibition at 150 µM of `COc1cc(/C=C/C(=O)O/N=C/c2ccco2)cc(OC)c1OC` >= 50%?
*A* false (0)

*Q* Is the recorded value of inhibition at 150 µM equal to or greater than 50% for this compound? `COc1cc(/C=C/C(=O)O/N=C/c2ccccn2)cc(OC)c1OC`
*A* false (0)

*Q* Form field: inhibition at 150 µM at least 50%? Entry: `COc1ccc(/C=C/C(=O)O/N=C/c2ccccn2)cc1OC`
*A* true (1)
